The reported measurements were obtained from ChEMBL document CHEMBL1138282.

Reported Activity values follow for various compounds
Test system: RT-4
Test: Growth inhibition of human RT4 cells at 20 uM after 96 hrs relative to control
Assay type: functional
Parameters: scale not given: the % may be the effect or the level left
Supply the numeric figure in %, leaving out any unit text.

Previously resolved entries follow.
INSERT INTO assay_data (compound, target_system, outcome_measure, unit_name, numeric_result) VALUES
  ('COc1ccc(CN2C[C@@H]3CC[C@H](OC)[C@H]2CN3Cc2ccccc2)cc1', 'RT-4', 'Activity', '%', 75),
  ('COc1ccc(CN2C[C@@H]3CC[C@H](O)[C@H]2CN3Cc2ccccc2)cc1', 'RT-4', 'Activity', '%', 95),
  ('COc1ccc(CN2C[C@H]3CC[C@H](O)[C@@H]2CN3Cc2ccccc2)cc1', 'RT-4', 'Activity', '%', 72),
  ('CC(C)=CCN1CCC2(C)c3cc(O)ccc3CC1[C@H]2C (single isomer, unassigned) [(+)-PENTAZOCINE]', 'RT-4', 'Activity', '%', 98),
  ('COc1ccc(CN2C[C@@H]3CC[C@@H](O)[C@H]2CN3Cc2ccccc2)cc1', 'RT-4', 'Activity', '%', 93);

Exercise: Request body: readout Activity, system RT-4, query COc1ccc(CN2C[C@H]3CC[C@@H](OC)[C@@H]2CN3Cc2ccccc2)cc1 . Return the value.
Key: 65

Exercise: Identify the measured Activity of O=C(CCCN1CCC(O)(c2ccc(Cl)cc2)CC1)c1ccc(F)cc1 [HALOPERIDOL] for RT-4.
Key: 55

Exercise: Query Activity on RT-4 for COc1ccc(CN2C[C@H]3CC[C@@H](O)[C@@H]2CN3Cc2ccccc2)cc1
Key: 67

Exercise: Record lookup: for RT-4, what Activity belongs to COc1ccc(CN2C[C@H]3CC[C@H](OC)[C@@H]2CN3Cc2ccccc2)cc1 ?
Key: 29

Exercise: Under RT-4: Activity value of COc1ccc(CN2C[C@@H]3CC[C@@H](OC)[C@H]2CN3Cc2ccccc2)cc1 ?
Key: 61

###

Tested on: A-427
Test: Growth inhibition of human A427 cells at 20 uM after 96 hrs relative to control
Assay type: functional
Set-up: scale not given: the % may be the effect or the level left
Parameter Activity: see the listing below.
# number only, unit % dropped from output

Here's what some known entries look like.
INSERT INTO assay_data (compound, outcome_measure, numeric_result) VALUES
  ('COc1ccc(CN2C[C@H]3CC[C@H](OC)[C@@H]2CN3Cc2ccccc2)cc1', 'Activity', -10),
  ('COc1ccc(CN2C[C@H]3CC[C@@H](O)[C@@H]2CN3Cc2ccccc2)cc1', 'Activity', 33),
  ('COc1ccc(CN2C[C@@H]3CC[C@H](O)[C@H]2CN3Cc2ccccc2)cc1', 'Activity', 46),
  ('COc1ccc(CN2C[C@@H]3CC[C@@H](O)[C@H]2CN3Cc2ccccc2)cc1', 'Activity', 46),
  ('O=C(CCCN1CCC(O)(c2ccc(Cl)cc2)CC1)c1ccc(F)cc1', 'Activity', 5),
  ('CC(C)=CCN1CCC2(C)c3cc(O)ccc3CC1[C@H]2C (single isomer, unassigned) [(+)-PENTAZOCINE]', 'Activity', 76);

Exercise: Item COc1ccc(CN2C[C@@H]3CC[C@@H](OC)[C@H]2CN3Cc2ccccc2)cc1 has what recorded Activity?
Key: -8

Exercise: Would you kindly share the measured Activity for COc1ccc(CN2C[C@H]3CC[C@@H](OC)[C@@H]2CN3Cc2ccccc2)cc1 ?
Key: -7

Exercise: Reported Activity for COc1ccc(CN2C[C@@H]3CC[C@H](OC)[C@H]2CN3Cc2ccccc2)cc1 : what is it?
Key: -5

Exercise: # query: Activity of entry COc1ccc(CN2C[C@H]3CC[C@H](O)[C@@H]2CN3Cc2ccccc2)cc1
Key: 46
